# experimental target: SIRT1 (Homo sapiens, UniProt Q96EB6)
# assay explanation: Trp mass spectrometry assay (SIRT1 activation)
# Assay type: biochemical
# test conditions: concentration of test compound that results in 150% activation of SIRT1; Trp peptide substrate
measured parameter: Tryp AVG EC1.5 (μM)

**Query** Bench note: what Tryp AVG EC1.5 (μM) did O=C(Nc1cccnc1)N1c2nc(N3CCCC(C(F)(F)F)C3)ccc2N2CC[C@H]1C2 (stereo partly shown) [Example 229] show?
**Result** B (EC1.5 1-25 μM)

**Query** Bench note: what Tryp AVG EC1.5 (μM) did O=C(Nc1cnccn1)N1c2nc(-c3cccc(C(F)(F)F)n3)ccc2N2CC[C@H]1C2 [Example 338] show?
**Result** B (EC1.5 1-25 μM)

**Query** Bench note: what Tryp AVG EC1.5 (μM) did Cc1nc(NC(=O)N2c3nc(-c4cccc(N(C)C)c4)ccc3N3CCC[C@H]2C3)sc1C [Example 383] show?
**Result** A (EC1.5<1 μM)

**Query** Bench note: what Tryp AVG EC1.5 (μM) did O=C(Nc1ccc(F)cn1)N1c2nc(-c3cncc(C(F)(F)F)c3)ccc2N2CC[C@H]1C2 [Example 277] show?
**Result** A (EC1.5<1 μM)

**Query** Bench note: what Tryp AVG EC1.5 (μM) did O=C(Nc1ccc(F)cn1)N1c2nc(-c3cncc(Cl)c3)ccc2N2CCC[C@H]1C2 [Example 401] show?
**Result** A (EC1.5<1 μM)

**Query** Bench note: what Tryp AVG EC1.5 (μM) did N#Cc1cccc(-c2ccc3c(n2)N(C(=O)Nc2cccnn2)[C@@H]2CCCN3C2)c1 [Example 226] show?
**Result** B (EC1.5 1-25 μM)

**Query** Bench note: what Tryp AVG EC1.5 (μM) did O=C(Nc1cccnc1)N1c2nc(-c3cccc(C(F)(F)F)c3)ccc2N2CCC[C@H]1C2 [314 (5)] show?
**Result** A (EC1.5<1 μM)

**Query** Bench note: what Tryp AVG EC1.5 (μM) did CS(=O)(=O)Nc1cccc(-c2ccc3c(n2)N(C(=O)Nc2cnccn2)[C@H]2CCN3C2)c1 [Example 418] show?
**Result** B (EC1.5 1-25 μM)

Continuing:
**Query** Bench note: what Tryp AVG EC1.5 (μM) did COc1cc(NC(=O)N2c3nc(-c4ccnc(N5CCC(F)(F)C5)c4)ccc3N3CC[C@H]2C3)ncn1 [Example 390] show?
**Result** B (EC1.5 1-25 μM)

###

# experimental target: UniProtKB Q96EB6
# Sequence (Q96EB6 1-747): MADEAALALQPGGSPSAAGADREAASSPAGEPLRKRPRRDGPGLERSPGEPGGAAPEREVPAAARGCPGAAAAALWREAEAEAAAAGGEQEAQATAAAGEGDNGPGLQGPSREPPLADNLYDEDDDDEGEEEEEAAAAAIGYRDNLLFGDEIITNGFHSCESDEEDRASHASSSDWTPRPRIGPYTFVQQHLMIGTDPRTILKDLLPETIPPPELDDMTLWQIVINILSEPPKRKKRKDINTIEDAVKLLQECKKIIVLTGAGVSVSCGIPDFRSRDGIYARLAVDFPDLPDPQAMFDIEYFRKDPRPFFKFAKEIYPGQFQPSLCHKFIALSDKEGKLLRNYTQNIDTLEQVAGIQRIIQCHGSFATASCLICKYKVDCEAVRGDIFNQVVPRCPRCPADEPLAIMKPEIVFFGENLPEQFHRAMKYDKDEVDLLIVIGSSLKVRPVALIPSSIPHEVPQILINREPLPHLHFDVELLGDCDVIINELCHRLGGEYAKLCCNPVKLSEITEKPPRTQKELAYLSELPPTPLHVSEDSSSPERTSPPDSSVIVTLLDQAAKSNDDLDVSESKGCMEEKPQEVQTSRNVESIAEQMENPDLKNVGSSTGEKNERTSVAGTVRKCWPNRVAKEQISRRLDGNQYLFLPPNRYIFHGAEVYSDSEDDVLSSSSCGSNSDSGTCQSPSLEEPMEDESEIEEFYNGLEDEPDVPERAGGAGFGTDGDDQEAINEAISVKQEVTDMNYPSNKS
# assay explanation: Trp mass spectrometry assay (SIRT1 activation)
# Type: biochemical
# test conditions: Trp mass spectrometry assay; EC1.5 = concentration giving 150% activation of SIRT1
measured parameter: Tryp AVG EC1.5 (μM)

Below: 4 compounds and their reported Tryp AVG EC1.5 (μM).
**Query** Bench note: what Tryp AVG EC1.5 (μM) did O=C(Nc1cccc(-c2cnco2)c1)N1c2nc(-c3cccc(Cl)c3)ccc2N2C[C@@H](O)[C@H]1C2 [Example 683] show?
**Result** A (EC1.5<1 μM)

**Query** Bench note: what Tryp AVG EC1.5 (μM) did CN(C)c1ccnc(NC(=O)N2c3nc(-c4cccc(C(F)(F)F)c4)ccc3N3CC[C@H]2C3)n1 [Example 747] show?
**Result** A (EC1.5<1 μM)

**Query** Bench note: what Tryp AVG EC1.5 (μM) did O=C(NCc1ncc(-c2cccc(NC(=O)N3c4nc(-c5cccc(C(F)(F)F)c5)ccc4N4CC[C@H]3C4)c2)o1)OCc1ccccc1 [Example 706] show?
**Result** A (EC1.5<1 μM)

**Query** Bench note: what Tryp AVG EC1.5 (μM) did CC(C)(C)OC(=O)NCC#Cc1cc(NC(=O)N2c3nc(-c4cccc(C(F)(F)F)c4)ccc3N3CC[C@H]2C3)cc(-c2cnco2)c1 [Example 749] show?
**Result** A (EC1.5<1 μM)

Continuing:
**Query** Bench note: what Tryp AVG EC1.5 (μM) did COc1cc(NC(=O)N2c3nc(-c4cccc(Cl)c4)ccc3N3C[C@@H](O)[C@H]2C3)ncn1 [Example 679] show?
**Result** B (EC1.5 1-25 μM)

**Query** Bench note: what Tryp AVG EC1.5 (μM) did CS(=O)(=O)c1cccc(-c2ccc3c(n2)N(C(=O)Nc2cccc(-c4cnco4)c2)[C@H]2CCN3C2)c1 [Example 710] show?
**Result** A (EC1.5<1 μM)

**Query** Bench note: what Tryp AVG EC1.5 (μM) did [N-]=[N+]=NCC(=O)NCc1ccc(NC(=O)N2c3nc(-c4cccc(C(F)(F)F)c4)ccc3N3CC[C@H]2C3)cc1 [Example 799] show?
**Result** A (EC1.5<1 μM)

**Query** Bench note: what Tryp AVG EC1.5 (μM) did CC(C)(C)OC(=O)NCC#Cc1ccc(NC(=O)N2c3nc(-c4cccc(C(F)(F)F)c4)ccc3N3CC[C@H]2C3)cc1-c1cnco1 [Example 751] show?
**Result** A (EC1.5<1 μM)

**Query** Bench note: what Tryp AVG EC1.5 (μM) did O=C(Nc1cccc(-c2cnco2)c1)N1c2cc(-c3cccc(C(F)(F)F)c3)ccc2N2CC[C@H]1C2 [Example 786] show?
**Result** B (EC1.5 1-25 μM)

**Query** Bench note: what Tryp AVG EC1.5 (μM) did O=C(NCc1ccc(NC(=O)N2c3nc(-c4cccc(C(F)(F)F)c4)ccc3N3CC[C@H]2C3)cc1)OC[C@@H]1[C@@H]2CCC#CCC[C@@H]21 [Example 796] show?
**Result** B (EC1.5 1-25 μM)

Taken from patent US9765075B2.
